- Test system: HepG2
- Test: GSK_TCMDC: Percent inhibition of human HepG2 cell line. Test compounds present at 10uM.
- Format: functional
Property Label: Inhibition (%)
Answers are plain numbers, in %.

Some compounds with recorded Inhibition:
Compound	Inhibition, %
O=C1OC2(CN1CC1CCN(Cc3ccc(O)c(Cl)c3)CC1)c1ccccc1-c1ccccc12	32
Cc1nnc2sc(-c3cccc(NC(=O)c4ccc(N5CCCCC5)c([N+](=O)[O-])c4)c3)nn12	3
COc1cc2nc(Cl)nc(Nc3ccncc3)c2cc1OC.Cl	11

Count: 4. Required value per item: Inhibition.
1. COc1cccc(C=NN=c2cc(C)[nH]c3ccccc23)c1
2. Cc1cc(N[C@@H](CC(C)C)C(=O)NCCc2ccccc2)nc(NCc2ccccc2C)n1.O=C(O)C(F)(F)F
3. COc1ccc2ncc(F)c(CCN3CCC(NCc4cc(F)c5c(c4)OCCO5)CC3)c2n1.Cl
4. Cc1noc(C)c1S(=O)(=O)N(C)Cc1ccc(-c2ccc(Cl)cc2)o1

Result string:
1: 16; 2: 17; 3: 15; 4: 10

###

- Test system: HepG2
- Test: GSK_TCMDC: Percent inhibition of human HepG2 cell line. Test compounds present at 10uM.
- Format: functional
Lab note: compare Inhibition against 20%. Equal or greater, write yes. Smaller, write no.

These solved cases illustrate the format of a correct answer.
Compound	Classification
CC(C)(C)c1ccc(CNC(=O)c2ccc(CNC3CCC(N)CC3)s2)cc1 (stereo not given)	yes
COc1ccc(CON2C(=N)N=C(N)NC2(C)C)cc1OC.Cl	yes
N#CCCN1CCN(Cc2ccc(-c3cccc(-c4nc5cc(F)ccc5[nH]4)c3)cc2)CC1.O=C(O)C(F)(F)F	no
O=C(Nc1cccc(-c2cccc(CN3CCCC3)c2)c1)c1cccc(Cl)c1.O=C(O)C(F)(F)F	yes

Consider the record given below.
Query string: Hi team, for CCCCC(N)COc1cccc2c(-c3ccncc3)c(-c3cccc(NC(=O)Nc4ccccc4)c3)nn12 (stereo not given) , is the recorded Inhibition at or above 20%?
Result string: no

###

- Test system: Plasmodium falciparum
- Test: GSK_TCMDC: Inhibition of Plasmodium falciparum Dd2 in whole red blood cells, using parasite LDH activity as an index of growth. Test compounds present at 2uM
- Assay type: functional
Property Label: Inhibition (%)
Answers are plain numbers, in %.

Some compounds with recorded Inhibition:
Compound	Inhibition, %
O=C(Nc1ccc(Cn2ncc(N3CCCNCC3)c(Cl)c2=O)cc1)Nc1cc(C(F)(F)F)cc(C(F)(F)F)c1.O=C(O)C(F)(F)F	29
Cc1cc(N2CCCC2)nc(Nc2ccc(NC(=O)c3ccccc3)cc2)n1	65
CCCc1ccc(Cc2cnc3nc(N)nc(N)c3c2C)cc1	0
NC1CCCN(Cc2cccc(-c3ccc(-c4nc5ccccc5[nH]4)s3)c2)C1.O=C(O)C(F)(F)F (centres undefined)	88

Count: 3. Required value per item: Inhibition.
1. COc1ccccc1C1CCN(C2CCC(NC(=O)/C=C/c3ccc(F)c(F)c3)CC2)CC1 (centres undefined)
2. COC(=O)CCCCOc1c(OC)cc(Cc2cnc(N)nc2N)cc1OC
3. O=C(Nc1cccc(CN2CCCN(Cc3ccc(O)cc3)CC2)c1)c1ccc(Br)cc1.O=C(O)C(F)(F)F

Result string:
1. 9
2. 0
3. 54

Count: 2. Required value per item: Inhibition.
1. O=C(Nc1ccccc1)N1CCOC(CCN2CCC(F)(F)CC2)(c2ccc(Cl)c(Cl)c2)C1 (centres undefined)
2. COc1ccc(O)c(C(=O)c2cc(C(=O)NCCc3ccccc3)c(=O)n(CCc3ccccc3)c2)c1

Result string:
1: 100; 2: 18

###

- System: Plasmodium falciparum
- Test: GSK_TCMDC: Inhibition of Plasmodium falciparum 3D7 in whole red blood cells, using parasite LDH activity as an index of growth. Test compounds present at 2uM
- Format: functional
Task for the reader: assign each of the following compounds its reported Inhibition.
One number for each entry, in %.

Some compounds with recorded Inhibition:
Compound	Measured Target	Readout Units	Inhibition
CC(NCCC1CCC(NC(=O)N[C@H](C)C(O)(c2ccccc2)c2ccccc2)CC1)c1cccc2ccccc12 (some centres undefined)	Plasmodium falciparum	%	86
CN(C)Cc1ccc2nc(-c3cccc(Cc4cc(Cl)ccc4OCc4ccc(Cl)cc4F)n3)[nH]c2c1.Cl	Plasmodium falciparum	%	93
CCNC(=O)Nc1ccc(N(C)c2ccnc(NC3CC3)n2)cc1	Plasmodium falciparum	%	100
CN(Cc1cccc(O)c1)C1CCCN(c2cc(NC(=O)c3ccc(F)cc3)ccn2)C1.O=C(O)C(F)(F)F (centres undefined)	Plasmodium falciparum	%	91
Oc1ccc(Nc2nc(NCc3ccccc3)c3ccccc3n2)cc1	Plasmodium falciparum	%	100

Count: 4. Required value per item: Inhibition.
1. CN(C)CCC(O)C=C(c1ccc(Cl)cc1)c1ccc(Cl)cc1 (centres undefined)
2. O=C(NCCCCN1CCN(c2cccc3c2OCCO3)CC1)c1ccc(NC(=O)c2cc(Cl)cc(Cl)c2)cc1
3. O=C(/C=C/c1ccc(Cl)c(Cl)c1)NCCCCCCN1CCN(C(=O)Nc2cc(F)cc(F)c2)CC1
4. O=C(O)C(F)(F)F.O=S(=O)(NCCN1CCCC1)c1cccc(-c2cccc(CNCc3ccsc3)c2)c1

Result string:
1. 93
2. 100
3. 86
4. 100

###

Task for the reader: assign each of the following molecules its reported Inhibition.
- System: Plasmodium falciparum
- Test: GSK_TCMDC: Inhibition of Plasmodium falciparum 3D7 in whole red blood cells, using parasite LDH activity as an index of growth. Test compounds present at 2uM
- Assay type: functional
One number for each entry, in %.

Molecule	Inhibition / %
CN1CCC(Oc2ccc(Nc3nccc(NCC(O)c4ccccc4)n3)cc2Cl)CC1 (centres undefined)	100
Cc1noc(C)c1-c1cccc(CNCc2cccc(-c3ccc(-c4nc5cccc(C)c5[nH]4)s3)c2)c1.O=C(O)C(F)(F)F	100
NC1CCCN(Cc2ccc(-c3cccc(-c4nc5ccccc5[nH]4)c3)cc2)C1.O=C(O)C(F)(F)F (centres undefined)	95
CCCCOc1ccc(-n2c(Nc3ccccc3)nc3cc(S(N)(=O)=O)ccc32)cc1	90
CCC(NC(=O)c1ccccc1NC(=O)c1ccc(C)cc1)C(=O)OC (centres undefined)	95
Cc1nc(-c2cccc(Nc3nccc(NCC(O)c4cccc(F)c4)n3)c2)cs1 (centres undefined)	98

Count: 3. Required value per item: Inhibition.
1. CC(C)Cn1cc2c(ccc3nc(N)nc(N)c32)n1
2. Cc1cccc2nc(-c3cccc(-c4ccc(NC(=O)Nc5ccc6c(c5)OCO6)cc4)c3)[nH]c12
3. CC(=O)Nc1ccc2[nH]cc(C3CCN(CC4CCN(C(=O)/C=C/c5ccc(Cl)c(Cl)c5)CC4)CC3)c2n1

Result string:
1. 97
2. 100
3. 100

###

- Test system: Plasmodium falciparum
- Test: GSK_TCMDC: Inhibition of Plasmodium falciparum Dd2 in whole red blood cells, using parasite LDH activity as an index of growth. Test compounds present at 2uM
- Format: functional
Property Label: Inhibition
Give the number first and the unit second.

Some molecules with recorded Inhibition:
Molecule	Property Label	Result
CC(=O)Nc1ccc(-c2nc3ccc(-c4nc5ccc(NC(C)=O)cc5[nH]4)cc3[nH]2)cc1	Inhibition	99%
CC(C)(C)OC(=O)c1c(NC(=O)/C=C/c2ccc(O)c(O)c2)sc2c1CCCC2	Inhibition	77%
Cc1ccc(CN2CCCN(Cc3cccc(NC(=O)c4ccc(-c5ccccc5)cc4)c3)CC2)cc1C.O=C(O)C(F)(F)F	Inhibition	19%
O=C(Nc1ccc(C(=O)OCC(c2ccccc2)c2ccccc2)cc1)N[C@@H](Cc1ccc(O)cc1)C(=O)NC1CCN(Cc2ccc(O)cc2)C1.O=C(O)C(F)(F)F (stereo partly drawn)	Inhibition	0%
O=C(O)C(F)(F)F.c1ccc(CCNCc2ccc(-c3ccc(CNCc4ccc5c(c4)OCO5)cc3)nc2)cc1	Inhibition	67%
OCC(c1ccccc1)n1c(COc2ccc(Cl)cc2)nc2c(OCCCN3CCCCC3)cccc21 (stereo not drawn)	Inhibition	68%

Count: 2. Required value per item: Inhibition.
1. CN1CCN(CCCN(Cc2cccc(-c3ccc(CNCc4ccc5c(c4)OCO5)cc3)c2)C(=O)CCC2CCCC2)CC1.O=C(O)C(F)(F)F
2. COc1ccc2ccccc2c1CNCCCCCCNCc1c(OC)ccc2ccccc12.Cl

Result string:
1: 84%; 2: 35%

###

Task for the reader: assign each of the following molecules its reported Inhibition.
- System: HepG2
- Test: GSK_TCMDC: Percent inhibition of human HepG2 cell line. Test compounds present at 10uM.
- Format: functional
Give bare numbers, in %.

Some molecules with recorded Inhibition:
Molecule	Readout Units	Inhibition
COc1ccc(Nc2nccc(N3CCC(NC(=O)C(C)c4ccc(Cl)cc4)C3)n2)cc1 (centres undefined)	%	35
O=C(NC1CC1)c1cnc(N2CCC(COc3cccc(F)c3)CC2)c(Cl)c1	%	1
COc1ccccc1CNC(=O)CCn1c(=O)[nH]c2ccsc2c1=O	%	0
Cc1ccc(CN(Cc2ccc(C(=O)N(C)C)cc2)Cc2ccc3c(c2)OCCO3)cc1C	%	10
CC(Cc1ccc(NC(=O)c2ccc(CNCCc3ccccc3)cc2)cc1)NCCc1cccc(Cl)c1.Cl (centres undefined)	%	100
CCN(CC)C(=O)c1cnc(-c2ccccc2)nc1Oc1cccc(Cl)c1	%	0
CCN(CC)CCN(Cc1ccc(-c2ccc(C(F)(F)F)cc2)cc1)C(=O)Cn1c(CCc2cccc(C#N)c2)nc(=O)c2ccccc21.O=C(O)C(O)C(O)C(=O)O	%	36
COc1cc2nccc(Nc3cc(C)cc(O)c3)c2cc1OC.Cl	%	0

Query string: Item Cc1ccc(CNC(=O)c2cnc(N3CCN(c4ccncc4)CC3)c(Cl)c2)cc1.O=C(O)C(F)(F)F has what recorded Inhibition?
Result string: 27
